Recorded melting point values for a group of molecules are listed next.

IN: Fill in the blank: the reported melting point of Cc1ccc(-c2cc3c(N[C@H](C)CO)nc(SCc4cccc(F)c4F)nc3cn2)o1 [Compound 17c] is ____.
OUT: 162 to 164 °C

IN: Consider the molecule shown here: C[C@H](CO)Nc1nc(SCc2cccc(F)c2F)nc2cnc(-c3ccco3)cc12 [Compound 17b] What is its recorded melting point?
OUT: 163 to 165 °C

IN: // lookup melting point for CC[C@H](CO)Nc1nc(SCc2cccc(F)c2F)nc2cnccc12 [Compound 24a]
OUT: 174 to 176 °C

IN: Please look up its melting point: C[C@H](CO)Nc1nc(SCc2cccc(F)c2F)nc2cnc(N)cc12
OUT: 174 to 176 °C
